target_or_system: Acrosin (Homo sapiens, UniProt P10323)
Sequence (P10323 20-42 limits assumed): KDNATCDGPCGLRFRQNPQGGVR
Sequence (P10323 43-343 limits assumed): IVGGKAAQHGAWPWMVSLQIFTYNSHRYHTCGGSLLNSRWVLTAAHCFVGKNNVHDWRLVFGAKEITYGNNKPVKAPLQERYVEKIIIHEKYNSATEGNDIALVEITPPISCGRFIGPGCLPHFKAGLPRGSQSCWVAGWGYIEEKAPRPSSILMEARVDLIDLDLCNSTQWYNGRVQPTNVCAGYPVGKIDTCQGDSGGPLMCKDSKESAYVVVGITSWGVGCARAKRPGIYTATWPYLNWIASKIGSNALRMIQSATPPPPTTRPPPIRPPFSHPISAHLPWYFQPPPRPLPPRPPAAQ
I'd appreciate it if you marked entries satisfied when IC50 is lower than 2000 µM and not satisfied when it is not.

{"molecule": "O=C(NCCOCCO)c1cc(-c2ccc(Br)cc2)[nH]n1", "target_or_system": "Acrosin (Homo sapiens, UniProt P10323)", "label_class": "not satisfied"}
{"molecule": "O=C(NCCCO)c1cc(-c2ccccc2)[nH]n1", "target_or_system": "Acrosin (Homo sapiens, UniProt P10323)", "label_class": "satisfied"}
{"molecule": "CC(C)(CO)NC(=O)c1cc(-c2ccc([N+](=O)[O-])cc2)n[nH]1", "target_or_system": "Acrosin (Homo sapiens, UniProt P10323)", "label_class": "satisfied"}
{"molecule": "CC(O)CN(CC(C)O)C(=O)c1cc(-c2ccc([N+](=O)[O-])cc2)n[nH]1 (configuration not stated)", "target_or_system": "Acrosin (Homo sapiens, UniProt P10323)", "label_class": "satisfied"}

Query: In the record for O=C(NCCCO)c1cc(-c2ccc(Br)cc2)[nH]n1 , is IC50 less than 2000 µM?
Result: satisfied

Query: Confirm or reject: IC50 of O=C(NC(CO)(CO)CO)c1cc(-c2cccc([N+](=O)[O-])c2)[nH]n1 lies strictly below 2000 µM
Result: satisfied

Query: Is it true that IC50 reported for CC(O)CNC(=O)c1cc(-c2ccccc2)[nH]n1 (configuration not stated) is less than 2000 µM?
Result: satisfied

Query: Take the molecule COc1ccc(-c2cc(C(=O)N(C)CCO)n[nH]2)cc1 and say whether its IC50 is less than 2000 µM.
Result: satisfied

Query: Record CC(CO)NC(=O)c1cc(-c2ccccc2)[nH]n1 (configuration not stated) : is its IC50 strictly below 2000 µM?
Result: not satisfied

Query: Is IC50 strictly under 2000 µM for the entry O=C(NCCO)c1cc(-c2cccc([N+](=O)[O-])c2)[nH]n1 ?
Result: satisfied

Query: Strictly below 2000 µM: is that where IC50 of O=C(NCCO)c1cc(-c2ccccc2)n[nH]1 sits?
Result: not satisfied
